half-life values for the compounds below.
Assay: Half life in H2O/MeOH buffered with HEPES/NaCl at pH 7.4 in presence of alkyl radical scavenger TEMPOR by 31P[1H]-NMR analysis
Assay type: physicochemical
Conditions: H2O/MeOH buffered with HEPES/NaCl
Numeric only. Scale: h

Recorded half-life, per entry:
                                   compound  test_value
0  CCOP(=O)(OCC)C(N(OC(C)c1ncc[nH]1)C(C)(C)C)C(C)(C)C (stereo in doubt; form 2)          60
1  CCOP(=O)(OCC)C(N(OC(C)c1cn(C)cn1)C(C)(C)C)C(C)(C)C (stereo in doubt; form 1)         792
2  CCOP(=O)(OCC)C(N(OC(C)c1cc[n+](C)cc1)C(C)(C)C)C(C)(C)C (stereo not given)        0.75

Inquiry: Query half-life for CCOP(=O)(OCC)C(N(OC(C)c1c[nH]cn1)C(C)(C)C)C(C)(C)C (stereo in doubt; form 1)
Reply text: 288

Inquiry: Specify half-life for CCOP(=O)(OCC)C(N(OC(C)c1cn(C)c[n+]1C)C(C)(C)C)C(C)(C)C (stereo in doubt; form 1) and stop.
Reply text: 25

====

The compounds listed here are annotated with their T.
Assay: Stability in H2O/MeOH buffered with Na2CO3/NaHCO3 at pH 10.3 assessed as temperature
Type: physicochemical
Details: buffer
Respond numerically; units are °C and should not be typed.

The cases that follow already have their T on record.
                                   compound  test_value
0  CCOP(=O)(OCC)C(N(OC(C)c1cn(C)cn1)C(C)(C)C)C(C)(C)C (stereo in doubt; form 1)          80
1  CCOP(=O)(OCC)C(N(OC(C)c1nccn1C)C(C)(C)C)C(C)(C)C (stereo in doubt; form 1)          80
2  CCOP(=O)(OCC)C(N(OC(C)c1ncc[nH]1)C(C)(C)C)C(C)(C)C (stereo in doubt; form 2)          80
3  CCOP(=O)(OCC)C(N(OC(C)c1c[nH]cn1)C(C)(C)C)C(C)(C)C (stereo in doubt; form 2)          70

Now examine the next entry.
Inquiry: Read the entry CCOP(=O)(OCC)C(N(OC(C)c1c[nH]cn1)C(C)(C)C)C(C)(C)C (stereo in doubt; form 1) and write its reported T.
Reply text: 80

====

Experiment: Drug homolysis in H2O/MeOH buffered with Na2CO3/NaHCO3 at pH 10.3 assessed as rate constant by measuring nitroxide level in presence of alkyl radical scavenger TEMPOR by 31P[1H]-NMR analysis
We begin with a simple list: items and their reported Kdiss.
Record the value in ×10⁻⁴ /s, omitting the unit from your answer.

Here is how some compounds turned out for Kdiss.
>>> df
                                   compound  test_value
0  CCOP(=O)(OCC)C(N(OC(C)c1nccn1C)C(C)(C)C)C(C)(C)C (stereo in doubt; form 1)        4.31
1  CCOP(=O)(OCC)C(N(OC(C)c1c[nH]cn1)C(C)(C)C)C(C)(C)C (stereo in doubt; form 1)        1.53
2  CCOP(=O)(OCC)C(N(OC(C)c1ncc[nH]1)C(C)(C)C)C(C)(C)C (stereo in doubt; form 2)        2.47

Inquiry: State its Kdiss for this compound: CCOP(=O)(OCC)C(N(OC(C)c1ncc[nH]1)C(C)(C)C)C(C)(C)C (stereo in doubt; form 1)
Reply text: 1.97
